# reported LD50 at 336 h; entries follow
assay: Acute toxicity in mice; details: mouse, in vivo, po; Chbb-NMRI (SPF)-mice of both sexes, oesophageal tube, deaths within 14 days
Write the answer as a number in mg/kg, unit excluded.

Quick one: LD50 at 336 h of COc1ccc2nc(O)sc2c1 ?
1280

Look up LD50 at 336 h for this compound: Cc1ccc2[nH]c(=O)sc2c1
2160

Item CCOc1ccc2[nH]c(=O)sc2c1 has what recorded LD50 at 336 h?
1200

Form field: reported LD50 at 336 h of CCOc1ccc(NC(C)=O)cc1 [D, Phenacetin, reference compound]
1460

====

test system: methemoglobin; test: Determination of the level of methemoglobin in the cat; format: in vivo; conditions: 100 mg/kg, oesophageal tube, 5 hours after administration
result-type: Average value of methemoglobin

Some compounds with known Average value of methemoglobin results, for comparison:
>  <compound>
Cc1ccc2[nH]c(=O)sc2c1

>  <Average value of methemoglobin>
2.4 % of total hemoglobin

$$$$
>  <compound>
COc1ccc2nc(O)sc2c1

>  <Average value of methemoglobin>
3.5 % of total hemoglobin

$$$$

What measured Average value of methemoglobin is associated with CCOc1ccc2[nH]c(=O)sc2c1 on methemoglobin?
0.1 % of total hemoglobin

Provide the documented Average value of methemoglobin with methemoglobin as the system for CCOc1ccc(NC(C)=O)cc1 [D, Phenacetin, reference compound]
35.8 % of total hemoglobin
